Where these numbers come from: ChEMBL document CHEMBL1128472

# assayedTarget: Potassium-transporting ATPase (Sus scrofa, UniProt P19156)
# Sequence (P18434 whole entry): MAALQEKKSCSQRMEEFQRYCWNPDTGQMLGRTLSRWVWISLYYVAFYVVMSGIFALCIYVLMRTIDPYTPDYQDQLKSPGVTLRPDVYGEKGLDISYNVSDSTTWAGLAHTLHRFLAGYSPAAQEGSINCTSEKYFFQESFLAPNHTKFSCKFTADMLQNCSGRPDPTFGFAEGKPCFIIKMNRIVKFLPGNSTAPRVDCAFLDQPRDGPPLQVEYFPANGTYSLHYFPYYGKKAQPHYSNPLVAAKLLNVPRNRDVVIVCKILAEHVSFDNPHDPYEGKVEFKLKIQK
# Sequence (P19156 whole entry): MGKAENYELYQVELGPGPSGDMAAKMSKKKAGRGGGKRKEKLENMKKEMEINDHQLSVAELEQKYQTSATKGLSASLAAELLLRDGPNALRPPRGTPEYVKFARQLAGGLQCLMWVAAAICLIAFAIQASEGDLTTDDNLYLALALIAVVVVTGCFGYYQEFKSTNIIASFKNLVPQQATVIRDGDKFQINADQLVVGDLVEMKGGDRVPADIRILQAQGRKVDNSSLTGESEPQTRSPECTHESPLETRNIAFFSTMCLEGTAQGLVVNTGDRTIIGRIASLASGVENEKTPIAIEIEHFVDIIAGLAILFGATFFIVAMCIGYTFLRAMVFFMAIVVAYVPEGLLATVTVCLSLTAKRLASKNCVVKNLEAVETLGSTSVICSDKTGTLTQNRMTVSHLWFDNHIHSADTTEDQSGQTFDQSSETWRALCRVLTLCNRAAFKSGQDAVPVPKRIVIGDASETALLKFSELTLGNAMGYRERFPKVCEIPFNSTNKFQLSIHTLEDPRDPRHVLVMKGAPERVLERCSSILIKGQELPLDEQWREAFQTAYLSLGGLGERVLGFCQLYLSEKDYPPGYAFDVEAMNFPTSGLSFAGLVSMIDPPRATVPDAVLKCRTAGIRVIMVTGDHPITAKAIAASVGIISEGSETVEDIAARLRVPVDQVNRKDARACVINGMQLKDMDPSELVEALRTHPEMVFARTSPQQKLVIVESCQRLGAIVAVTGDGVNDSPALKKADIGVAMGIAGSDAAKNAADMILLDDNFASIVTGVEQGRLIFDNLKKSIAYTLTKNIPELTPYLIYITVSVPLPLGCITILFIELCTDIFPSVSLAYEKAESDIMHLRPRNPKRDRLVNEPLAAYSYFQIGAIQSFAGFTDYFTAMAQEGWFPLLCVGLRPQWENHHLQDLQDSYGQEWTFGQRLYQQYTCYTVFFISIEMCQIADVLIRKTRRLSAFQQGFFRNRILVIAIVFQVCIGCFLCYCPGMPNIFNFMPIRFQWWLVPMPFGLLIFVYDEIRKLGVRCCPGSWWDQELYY
# experimentalProtocol: Inhibition of K+ stimulated gastric ATPase activity
Kindly state pIC50 for each of the entries shown.
In plain terms, pIC50 is the concentration in mol/L turned into minus its base-10 logarithm.

Per the records, this molecule ( Cc1cc(F)ccc1Nc1nc(N(C)c2ccccc2)c2cccc(O)c2n1 ) has pIC50 equal to 6.77

The measured pIC50 associated with CN(c1ccccc1)c1nc(Nc2ccccc2)nc2ccccc12 reads 7.19

Entry CCNc1nc(Nc2ccccc2C)c2ccccc2n1 — recorded pIC50 = 5.86

What the record says about COc1cccc2c(Nc3ccccc3C)nc(Nc3ccccc3C)nc12 : pIC50 is 5.60

Entry Cc1ccccc1Nc1nc(N(C)c2ccccc2C)nc2ccccc12 — recorded pIC50 = 5.70

Form field pIC50, entry Cc1ccccc1Nc1nc(Nc2ccccc2)c2ccccc2n1 : 6.03

response.value for Cc1ccccc1Nc1nc(N(C)c2ccccc2C)c2ccccc2n1 (field: pIC50) = 7.34

The molecule listed as Cc1cc(F)ccc1Nc1nc(N(C)c2ccccc2)c2cccc(F)c2n1 shows pIC50 equal to 6.85

Record summary for COc1cccc2c(N(C)c3ccccc3)nc(Nc3ccccc3C)nc12 : reported pIC50 = 7.38

Documented pIC50 of Cc1cc(F)ccc1Nc1nc(N(C)c2ccccc2)c2cccc(OCCO)c2n1 : 7.00

// recorded pIC50 for COc1ccc(N(C)c2nc(Nc3ccccc3C)[n+](C)c3ccccc23)cc1 : 7.55
